Molecular target: hGIPR (Homo sapiens)
Sequence (P48546 22-466): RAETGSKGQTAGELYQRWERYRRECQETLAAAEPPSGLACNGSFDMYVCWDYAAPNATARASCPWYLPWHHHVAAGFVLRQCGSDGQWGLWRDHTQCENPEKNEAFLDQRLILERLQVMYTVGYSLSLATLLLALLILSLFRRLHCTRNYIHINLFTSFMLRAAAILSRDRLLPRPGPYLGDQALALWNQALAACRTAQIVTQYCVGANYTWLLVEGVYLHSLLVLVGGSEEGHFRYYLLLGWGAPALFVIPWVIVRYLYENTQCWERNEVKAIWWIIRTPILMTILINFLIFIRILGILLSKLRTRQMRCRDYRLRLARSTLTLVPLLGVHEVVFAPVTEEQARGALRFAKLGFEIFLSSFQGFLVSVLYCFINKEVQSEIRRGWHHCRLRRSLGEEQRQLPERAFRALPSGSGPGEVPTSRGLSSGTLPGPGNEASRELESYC
Test: Functional cAMP activation in the presence of 0.1% casein (no HSA);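 also: intracellular cAMP rise after 30 min at 37 °C read by HTRF against a standard curve, scaled between buffer alone (0%) and top control ligand concentration (100%), four-parameter fit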
Format: cell-based
Conditions: in the presence of 0.1% casein (no HSA); geometric mean; read-out: Relative cAMP EC50, hGIPR
Starred links: 1 amine or outer side, 2 acyl side, 3 side chain; linkers in the order of their positions; H or OH if unused. Non-standard residues stand in square brackets, D forms with d. Groups on a side chain read outwards from the residue. No end group written: not given here. *: point of attachment. C20 diacid = O=C(O)CCCCCCCCCCCCCCCCCCC(=O)*; C18 diacid = O=C(O)CCCCCCCCCCCCCCCCC(=O)*; Phe(4-CN) = N#Cc1ccc(C[C@H](N)C(=O)O)cc1; αMePhe(2-F) = C[C@](N)(Cc1ccccc1F)C(=O)O; γGlu = O=C(O)[C@H](CCC(=O)[*:2])N[*:1]; αMe4Pal = C[C@](N)(Cc1ccncc1)C(=O)O; αMeY = C[C@](N)(Cc1ccc(O)cc1)C(=O)O; 4Pal = N[C@@H](Cc1ccncc1)C(=O)O; αMeL = CC(C)C[C@](C)(N)C(=O)O; αMeS = C[C@](N)(CO)C(=O)O; Orn = NCCC[C@H](N)C(=O)O; AEEA = NCCOCCOCC(=O)O; Aib = CC(C)(N)C(=O)O
Can you tell me EC50 for the items I'm about to list?
Numbers only, in pM.

Record excerpt, results attached:
| SUBSTANCE | OBSERVATION TYPE | RESULT |
| --- | --- | --- |
| H-Y[Aib]QGTFTSD[4Pal]S[Orn][αMeL]LDKK([γGlu-γGlu-C18 diacid])AQ[αMe4Pal]AFIEYLIE[Aib]GPSSGAPPPSGS-NH2 [Example 865] | EC50 | 79.7 |
| H-Y[Aib]QGTFTSD[4Pal]SK[αMeL]LDKK([γGlu-γGlu-C18 diacid])AQ[Aib]AFIEYLIE[Aib]GPSSGAPPPSGSEE-NH2 [Example 905] | EC50 | 217 |
| H-Y[Aib]QGTFTSDFS[Orn][αMeL]LDKK([AEEA-γGlu-C18 diacid])AQ[Aib]AFIEWLLEGGTSSGAPPPSGT-NH2 [Example 177] | EC50 | 213 |
| H-Y[Aib]QGTFTSDFS[Orn][αMeL]LD[Orn]K([γGlu-γGlu-C18 diacid])AQ[Aib]AFIE[αMe4Pal]LLAGGPSSGAPPPEGSEE-NH2 [Example 1053] | EC50 | 123 |
| Y[Aib]QGTFTSD[4Pal]SQ[αMeL]LD[Orn]K([AEEA-γGlu-C18 diacid])AQ[αMe4Pal]AFIE[αMeY]LLEGGPSSGAPPPSGS-NH2 [Example 932] | EC50 | 188 |
| H-Y[Aib]QGTFTSDFS[Orn][αMeL]LDKK([γGlu-γGlu-γGlu-C18 diacid])AQ[Aib]AFIEYLLE[Aib]GPSSGAPPPSGS-NH2 [Example 202] | EC50 | 96.5 |
| H-Y[Aib]QGTFTSDFSK[αMeL]LDKK([AEEA-γGlu-C20 diacid])AQ[Aib]AFIEYLLAGGPSSGAPPPGGS-NH2 [Example 16] | EC50 | 217 |
| H-Y[Aib]QGTFTSDFS[Orn][αMeL]LDKK([AEEA-AEEA-γGlu-C18 diacid])AQ[Aib]AFIEYLLEGGPSSGAPPPSGE-NH2 [Example 107] | EC50 | 426 |

For the 4 substances below, give their EC50 values.
1. H-Y[Aib]QGT[αMePhe(2-F)]TSDYSK[αMeL]LDKK([AEEA-γGlu-C18 diacid])AQ[Aib]QFIEYLEEGGPSSGEPPPSEG-NH2 [Example 292]
2. H-Y[Aib]QGTFTSD[4Pal]SQ[αMeL]LDKK([γGlu-γGlu-C18 diacid])AQ[αMe4Pal]AFIE[αMe4Pal]LIE[Aib]GPSSGEPPPSGSEE-NH2 [Example 1125]
3. H-Y[Aib]QGTFTSD[Phe(4-CN)]S[Orn][αMeL]LDKK([AEEA-γGlu-C18 diacid])AQ[Aib]AFIEYLLE[Aib]GPSSGAPPPSGS-NH2 [Example 191]
4. H-Y[Aib]QGTFTSDFSK[αMeL]LDKK([AEEA-γGlu-C20 diacid])AQ[Aib]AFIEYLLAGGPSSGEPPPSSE-NH2 [Example 3]

1020
173
422
217

For the 6 substances below, give their EC50 values.
1. H-Y[Aib]QGTFTSD[4Pal][αMeS]Q[αMeL]LD[Orn]K([dE-γGlu-C18 diacid])AQ[αMe4Pal]QFIQ[αMeY]LIAGGPSSGEPPPSGGGE-NH2 [Example 1133]
2. Y[Aib]QGT[αMePhe(2-F)]TSD[4Pal][αMeS]I[αMeL]LD[Orn]K([γGlu-γGlu-C18 diacid])AQ[αMe4Pal]EFI[dE][αMeY]LIEGGPSSGAPPPSGE-NH2 [Example 1150]
3. H-Y[Aib]QGTFTSDFS[Orn][αMeL]LDKK([AEEA-γGlu-C18 diacid])AQ[Aib]AFIEYLLEGGPSSGAPPPEGT-NH2 [Example 160]
4. H-Y[Aib]QGTFTSDFS[Orn][αMeL]LDKK([AEEA-γGlu-C18 diacid])AQ[Aib]AFIEWLLEGGHSSGAPPPSGH-NH2 [Example 269]
5. Y[Aib]QGTFTSDFSK[αMeL]LDKK([AEEA-γGlu-C18 diacid])AQ[Aib]AFIEYLIE[Aib]GPSSGAPPPSGS-NH2 [Example 797]
6. H-Y[Aib]QGTFTSD[4Pal]SQ[αMeL]LDKK([AEEA-γGlu-C18 diacid])AQ[Aib]AFIE[αMeY]LLEGGPSSGAPPPSGS-NH2 [Example 910]

[71.9, 6.9, 354, 288, 78.1, 111]

For the 5 substances below, give their EC50 values.
1. Y[Aib]QGTFTSD[4Pal]SQ[αMeL]LDKK([Glu-Glu-γGlu-C18 diacid])AQ[αMe4Pal]AFIEYLIE[Aib]GPSSGAPPPSGS-NH2 [Example 895]
2. H-Y[Aib]QGTFTSD[4Pal]SQ[αMeL]LDKK([Glu-γGlu-C18 diacid])AQ[αMe4Pal]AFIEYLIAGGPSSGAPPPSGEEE-NH2 [Example 1089]
3. H-Y[Aib]QGTFTSDFS[Orn][αMeL]LDKK([AEEA-AEEA-γGlu-C20 diacid])AQ[Aib]AFIEYLLE[Aib]GPSSGAPPPSEG-NH2 [Example 71]
4. H-Y[Aib]QGTFTSDFS[Orn][αMeL]LDKK([AEEA-γGlu-C20 diacid])AQ[Aib]AFIEYLLE[Aib]GPSSGAPPPSGS-NH2 [Example 73]
5. H-Y[Aib]QGTFTSD[4Pal]SQ[αMeL]LDKK([γGlu-γGlu-C18 diacid])AQ[αMe4Pal]AFIEYLIE[Aib]GPSSGAPPPEGE-NH2 [Example 884]

111
213
105
114
155
